System: brains, heart, liver, muscle, and DRG of the NHPs
Test: Maturation of TTM-001 and TTM-002 capsids, NGS enrichment in NHP tissues
Assay type: in vivo
Conditions: NGS fold-enrichment of RNA, NHP brain, relative to AAV9 control
# note: exactly 80 fold is not below, so it is false (0); use true (1) for Fold Enrichment relative to AAV9, Brain (NHP) strictly under it

>>> df
           seq_string                         target_under_test  class_label
0  KTINGRGSPHKRGQNQQT  brains, heart, liver, muscle, and DRG of the NHPs    false (0)
1  KSINGHDSPHKSGQIQHT  brains, heart, liver, muscle, and DRG of the NHPs    false (0)
2  KAINGHDSPHKSEKNQQT  brains, heart, liver, muscle, and DRG of the NHPs     true (1)
3  KAINGHDSPHKSAQNQET  brains, heart, liver, muscle, and DRG of the NHPs    false (0)
4  KTSNESGSPHSKAQNHQT  brains, heart, liver, muscle, and DRG of the NHPs     true (1)
5  KTVNGHDSPHKSGRNQET  brains, heart, liver, muscle, and DRG of the NHPs    false (0)

Q: Given `KTTNGQDSPHKSGQNQQS` , is recorded Fold Enrichment relative to AAV9, Brain (NHP) strictly lower than 80 fold?
A: false (0)

====

Test system: brains, heart, liver, muscle, and DRG of the NHPs
Experiment: Maturation of TTM-001 and TTM-002 capsids, NGS enrichment in NHP tissues
Assay type: in vivo
Details: NGS fold-enrichment; liver RNA; NHP; relative to AAV9
measurement.name: Fold Enrichment relative to AAV9, Liver RNA (NHP) (fold)
// note: answer is a bare numeric in fold

>>> print(df.to_string())
           seq_string                         target_under_test     u  experimental_value
0  KTINGSGSPHFPFQNQQT  brains, heart, liver, muscle, and DRG of the NHPs  fold              10.322
1  KTINGSGSPHSYYSNQQT  brains, heart, liver, muscle, and DRG of the NHPs  fold              10.680
2  KTINGSGSPHSKAKKVQT  brains, heart, liver, muscle, and DRG of the NHPs  fold              10.102

Let us move to another entry and its Fold Enrichment relative to AAV9, Liver RNA (NHP).
Q: Lab note: need Fold Enrichment relative to AAV9, Liver RNA (NHP) for `KTINRQFSPHSKAQNQQT` on brains, heart, liver, muscle, and DRG of the NHPs, anyone have it?
A: 10.275

====

Test system: brains, heart, liver, muscle, and DRG of the NHPs
Experiment: Maturation of TTM-001 and TTM-002 capsids, NGS enrichment in NHP tissues
Format: in vivo
Conditions: NHP liver RNA; NGS; TTM-001 and TTM-002 matured AAV capsid variants; relative to AAV9 control
The following sequences are listed with their measured Fold Enrichment relative to AAV9, Liver RNA (NHP) values.
Just the number please, in fold, no unit attached.

Q: What does the record list as Fold Enrichment relative to AAV9, Liver RNA (NHP) for `KTINGSGSPHSFRYNQQT` ?
A: 21.097

Q: Quick one: Fold Enrichment relative to AAV9, Liver RNA (NHP) of `KPRFGSGSPHSKAQNQQT` ?
A: 27.203

Q: I have this sequence here, `KTINGSGSPHSKALRCQT` , and I need its recorded Fold Enrichment relative to AAV9, Liver RNA (NHP).
A: 17.283

Q: For `KTINGSGSPHSLYWNQQT` , what is its reported Fold Enrichment relative to AAV9, Liver RNA (NHP)?
A: 53.262

Q: Which Fold Enrichment relative to AAV9, Liver RNA (NHP) value is on record for `KTINGSGSPHSKQRPQQT` ?
A: 11.130

These measurements were taken from patent US20260250318A1.
